- Tested on: T-47D breast
- test-description: NCI-60 one-dose screen, 48 h
- test-parameters: 10 µM unless noted
About 83,000 compounds went through this panel and 20% of them were active in at least one assay; those are over-represented in the sample as a whole. Activity calls are given as the source filed them. How the source made its calls: active means growth percent below 10; inactive means the rest.
Pick one: YES = active, NO = inactive

Solved entries (count: 5):
Call for entry O=C(C[N+](=O)[O-])c1ccc(Cl)cc1 :
NO

Record: O=C(Nc1ccc(I)cc1)c1cccc([N+](=O)[O-])c1O
YES

Record: Cc1cc(C)c(NC(=O)c2sc3nc4c(cc3c2N)CN(Cc2ccccc2)CC4)c(C)c1
NO

Record: O=C1OC(c2ccccc2)=N/C1=C\c1ccc([N+](=O)[O-])cc1
NO

Record: O=C(N/N=C/c1c(Cl)cccc1Cl)c1ccccc1Nc1ccnc(C(F)(F)F)c1
NO

More entries:
Call for entry CCOC(=O)c1cc(/C(=N\O)c2cc(OC)c(OC)c(OC)c2)n2cc(C)cc(C)c12 :
NO

Record: COc1cc(Br)c(OC)cc1Br
NO

Record: Nc1nc(N)c2nc(CNc3ccc(C(=O)CC(CCC(=O)O)C(=O)O)cc3)cnc2n1 (stereo not given)
NO

Record: CC(C)(C)c1cc(-c2nc3ccc(N4CCN(CCO)CC4)cc3[nH]2)cc(C(C)(C)C)c1O
NO

Record: Nc1c(C(=O)Nc2ccccc2)sc2nc3c(cc12)CCCCC3
NO

----------
- System: OVCAR-3 ovarian
- test-description: NCI-60 one-dose screen, 48 h (100 = growth as untreated, 0 = no growth, -100 = all killed)
- test-parameters: 10 µM unless noted
Compounds without any hit were thinned out: in the full panel of roughly 83,000, 20% have a hit.
Threshold check on growth: strictly below 50% is criterion met; on or above 50% is criterion not met.

Does the reported growth of O=C(CN1CCN(c2cc3c(cc2F)c(=O)c(C(=O)O)cn3C2CC2)CC1)Nc1ccc(C(=O)/C=C/c2ccccc2)cc1 stay below 50%?
criterion not met

More entries:
Does the reported growth of COc1ccc(Cl)cc1NC(N)=S stay below 50%?
criterion not met

Record: O=C(OCCCCOC(=O)n1cnc2ccccc21)n1cnc2ccccc21
criterion not met

Record: O=C(c1ccccc1)C(Cl)C(Cl)c1ccccc1 (stereo unspecified)
criterion met

Record: Nc1nc(-c2ccccc2)cs1
criterion not met

Record: COc1ccc(S(=O)(=O)NCCNc2nccc(-c3c(-c4ccccc4)nc4sccn34)n2)cc1
criterion met

----------
- Test system: SF-539 CNS
- test-description: NCI-60 one-dose screen, 48 h
- test-parameters: 10 µM unless noted
Compounds without any hit were thinned out: in the full panel of roughly 83,000, 20% have a hit. Calls of active or inactive are those of the source. The calls were made as follows: active = growth percent below 10; inactive = the rest.
Pick one: 1 (active), 0 (inactive)

Solved entries (count: 6):
Call for entry CCSc1nnc(Nc2ccc(C(C)C)cc2)s1 :
0

Record: O=C(Nc1ccc(I)cc1)c1cccc([N+](=O)[O-])c1O
0

Record: CCCCCCCN(CCCCCCC)C(=N)c1ccc(OC)c2ccccc12
1

Record: COc1ncc(-c2ccc3ncnc(Nc4cccc(Cl)c4)c3c2)cc1NS(=O)(=O)CCN1CCOCC1
1

Record: COc1cccc(/C=C/C(=O)c2sc(Nc3ccc(O)cc3)nc2C)c1
0

Record: COc1cc(Cn2c(SCC(=O)Nc3cc(OC)c(OC)c(OC)c3)nc3ccccc3c2=O)cc(OC)c1OC
0

More entries:
Call for entry Cc1cc(Nc2nc(-c3ccncc3)nc3ccccc23)n[nH]1 :
0

Record: O=C(Nc1ccc(OCc2nnc(-c3ccc(Cl)cc3)o2)c(F)c1)Nc1ccc(Cl)c(Cl)c1
0

Record: C[C@]12CC[C@@H]3c4cc(O)c(O)cc4CC[C@H]3[C@@H]1CC[C@@H]2O
1

Record: Cn1cc(C=O)c2ccccc21
0
